Experiment: STM_H9_OrnCyssISnorm_ratio: Stemina devTOX quickPredict H9 human embryonic stem cell (hESC)-based Assay for Ornithine (ORN):Cystine (CYSS) Ratio (AID 2283714)
Results filed as inconclusive are left out. Activity calls are given as the source filed them. The calls were made as follows: active = hit-call score of the fitted dose curve at least 0.9, where 1 is the maximum; inconclusive = response in the unintended direction; inactive = score below 0.9.
Parameter call: string, one of active, inactive

Completed entries (count: 7):
MOLECULE	CAT
Clc1ccc(C(c2ccccc2Cl)C(Cl)(Cl)Cl)cc1 (stereo not drawn)	active
CCSC(=O)N(CC)C1CCCCC1	active
CCNc1nc(NC(C)C)nc(SC)n1	active
CCCCCCOC(=O)c1ccccc1C(=O)OCCCCCC	active
CO/C=C(/C(=O)OC)c1ccccc1COc1cccc(C(F)(F)F)n1	inactive
ClC1=C(Cl)[C@]2(Cl)[C@@H]3[C@H]4C[C@H]([C@@H]5O[C@H]45)[C@@H]3[C@@]1(Cl)C2(Cl)Cl	active
Nn1cnnc1	inactive

Note: attention shifts to another entry.
Could you please tell me the result logged for C=CC(=O)NCNC(=O)C=C in this assay?
active

* * *

Biological target: human Retinoic Acid Receptor gamma (RARg), RARG (gene 5916)
Assay: ATG_RARg_TRANS: Attagene TRANS-FACTORIAL HepG2 Assay for human Retinoic Acid Receptor gamma (RARg) (AID 2283009)
Records with an inconclusive call do not appear. The source made the active and inactive calls. How the source made its calls: active means hit-call score of the fitted dose curve at least 0.9, where 1 is the maximum; inconclusive means response in the unintended direction; inactive means score below 0.9.
OBSERVED_PROPERTY: outcome

CHEMICAL_STRUCTURE	OBSERVED_PROPERTY	MEASURED
CCCCCCCCCC[N+](C)(C)CCCCCCCCCC	outcome	inactive
O=S(=O)(O)C(F)(F)C(F)(F)C(F)(F)C(F)(F)F	outcome	inactive
C=CC(N)=O	outcome	inactive

* * *

Read-out: Monokine induced gamma interferon (MIG), CXCL9 (gene 4283)
Experiment: BSK_SAg_MIG: BioMAP Diversity Plus: SAg Assay for Monokine induced gamma interferon (MIG) Biomarker Activity (AID 2283092)
Details: primary human HUVEC with PBMC; actives raise or lower the signal
Activity calls are given as the source filed them. How the source made its calls: active means hit-call score of the fitted dose curve at least 0.9, where 1 is the maximum; inactive means score below 0.9.
Parameter call: string, one of active, inactive

Completed entries (count: 5):
CHEMICAL_STRUCTURE	CAT
c1ccc(-c2ccccc2)cc1	inactive
CCCCCCCCCC[N+](C)(C)CCCCCCCCCC	active
CC(c1ccc(O)cc1)(c1ccc(O)cc1)c1ccc(O)cc1	active
Nn1cnnc1	inactive
Cc1cc(-c2ccc(N)c(C)c2)ccc1N	inactive

Could you please tell me the result logged for CCOP(=S)(OCC)SCSC(C)(C)C in this assay?
inactive

Could you please tell me the result logged for O=C(NC(=O)c1c(F)cccc1F)Nc1cc(Cl)c(OC(F)(F)C(F)F)c(Cl)c1 in this assay?
inactive

Could you please tell me the result logged for ClC1=C(Cl)[C@]2(Cl)[C@@H]3[C@@H](Cl)[C@H]4O[C@H]4[C@@H]3C1(Cl)C2(Cl)Cl in this assay?
inactive

Could you please tell me the result logged for CCCCCCCCOC(=O)c1ccccc1C(=O)OCCCCCCCC in this assay?
inactive

Could you please tell me the result logged for C=CC(=O)NCNC(=O)C=C in this assay?
inactive

* * *

Target: Estrogen receptor (Homo sapiens)
Assay: OT_ERa_GFPERaERE_0120: Odyssey Thera (OT) 2-hour HeLa Transcription Induction Assay for Estrogen Receptor (AID 2283382)
Calls of active or inactive are those of the source. The calls were made as follows: active = hit-call score of the fitted dose curve at least 0.9, where 1 is the maximum; inconclusive = response in the unintended direction; inactive = score below 0.9.
Parameter call: string, one of 1.0 = active, 0.0 = inactive

COMPOUND	CAT
CN(C)CCO	0.0

Could you please tell me the result logged for OCC(O)CO in this assay?
0.0

Could you please tell me the result logged for O=NN(c1ccccc1)c1ccccc1 in this assay?
0.0

Could you please tell me the result logged for CC(C)C(=O)OCC(C)(C)C(OC(=O)C(C)C)C(C)C (stereo unspecified) in this assay?
0.0

Could you please tell me the result logged for COS(=O)(=O)OC in this assay?
0.0

Could you please tell me the result logged for Nc1ccc(-c2ccc(N)cc2)cc1 in this assay?
0.0

Could you please tell me the result logged for C=CC(=O)NCNC(=O)C=C in this assay?
0.0

Could you please tell me the result logged for COc1ccc(O)c(C(C)(C)C)c1 in this assay?
0.0

* * *

Assay: APR_HepG2_MitoMembPot_24hr: Apredica 24-hour HepG2 Assay for Mitochondrial Membrane Potential (AID 2282911)
Conditions: imaging, actives raise or lower the signal
Calls of active or inactive are those of the source. How the source made its calls: active means hit-call score of the fitted dose curve at least 0.9, where 1 is the maximum; inactive means score below 0.9.
Parameter call: string, one of 1 (active), -1 (inactive)

COMPOUND	CAT
CN(C)CCO	-1

Could you please tell me the result logged for Clc1ccc(C(c2ccccc2Cl)C(Cl)(Cl)Cl)cc1 (stereo not given) in this assay?
-1

Could you please tell me the result logged for ClC1=C(Cl)[C@]2(Cl)[C@@H]3[C@@H](Cl)[C@H]4O[C@H]4[C@@H]3C1(Cl)C2(Cl)Cl in this assay?
-1

Could you please tell me the result logged for Cc1ccccc1O in this assay?
-1

Could you please tell me the result logged for NS(=O)(=O)C(F)(F)C(F)(F)C(F)(F)C(F)(F)C(F)(F)C(F)(F)C(F)(F)C(F)(F)F in this assay?
1

* * *

Read-out: Cytochrome P450 (CYP1A2), CYP1A2 (gene 1544)
Assay: LTEA_HepaRG_CYP1A2: Life Technologies and Expression Analysis (LTEA) Assay for Cytochrome P450 (CYP1A2) using HepaRG (AID 2283479);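 as to AC50: TaqMan qRT-PCR transcript level normalized to ACTB GAPDH and POLR2A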
Settings: mRNA level, 48 h; actives raise or lower the signal
The source made the active and inactive calls. Rule for the calls: active = hit-call score of the fitted dose curve at least 0.9, where 1 is the maximum; inactive = score below 0.9.
OBSERVED_PROPERTY: AC50

CHEMICAL_STRUCTURE	AC50
CCOP(=S)(OCC)SCSC(C)(C)C	inactive
Cc1ccccc1CO[C@@H]1C[C@@]2(C(C)C)CC[C@]1(C)O2	76.3 µM (active)
CCC(C)(c1ccc(O)cc1)c1ccc(O)cc1	89.2 µM (active)
ClC1=C(Cl)[C@]2(Cl)[C@@H]3[C@@H](Cl)[C@H]4O[C@H]4[C@@H]3C1(Cl)C2(Cl)Cl	inactive

Answer with reported AC50 of COS(=O)(=O)OC
31 µM (active)

Answer with reported AC50 of CCCCCCCCCc1ccc(O)cc1
inactive

Answer with reported AC50 of Oc1ccc(C(c2ccc(O)cc2)(C(F)(F)F)C(F)(F)F)cc1
inactive

* * *

Read-out: Interleukin-8 (IL8), CXCL8 (gene 3576)
Assay: BSK_LPS_IL8: BioMAP Diversity Plus: LPS Assay for Interleukin-8 (IL8) Biomarker Activity (AID 2283078)
Settings: primary human HUVEC with PBMC; actives raise or lower the signal
Activity calls are given as the source filed them. How the source made its calls: active means hit-call score of the fitted dose curve at least 0.9, where 1 is the maximum; inactive means score below 0.9.
Parameter call: string, one of true for active, false for inactive

Could you please tell me the result logged for O=C(N[C@H]1CN2CCC1CC2)c1cc2ccoc2cn1 in this assay?
false

Could you please tell me the result logged for CCOP(=S)(OCC)SCSC(C)(C)C in this assay?
false

Could you please tell me the result logged for Cc1cccc([N+](=O)[O-])c1 in this assay?
false

Could you please tell me the result logged for CCOCCOC(C)=O in this assay?
false

Could you please tell me the result logged for Oc1ccc(C(c2ccc(O)cc2)(C(F)(F)F)C(F)(F)F)cc1 in this assay?
true

* * *

Assay: APR_HepG2_P-H2AX_24hr: Apredica 24-hour HepG2 Assay for H2AX Phosphorylation (AID 2282920)
Conditions: high-content imaging, actives raise or lower the signal
Activity calls are given as the source filed them. Rule for the calls: active = hit-call score of the fitted dose curve at least 0.9, where 1 is the maximum; inactive = score below 0.9.
Parameter call: string, one of T = active, F = inactive

CHEMICAL_STRUCTURE	CAT
Cc1cc2c3c(c1)C(c1ccccc1)=N[C@@H](NC(=O)c1ccncc1)C(=O)N3CC2	F

Could you please tell me the result logged for CN(C)c1nc(=O)n(C2CCCCC2)c(=O)n1C in this assay?
F

Could you please tell me the result logged for ClC1=C(Cl)[C@]2(Cl)[C@@H]3[C@H]4C[C@H]([C@@H]5O[C@H]45)[C@@H]3[C@@]1(Cl)C2(Cl)Cl in this assay?
F

Could you please tell me the result logged for C[C@]12CCC(=O)C=C1CC[C@@H]1[C@@H]2CC[C@@]2(C)[C@H]1CC[C@]2(C)O in this assay?
F

Could you please tell me the result logged for Cc1cc(-c2ccc(N)c(C)c2)ccc1N in this assay?
F

Could you please tell me the result logged for O=C(NC(=O)c1cc(F)c(F)cc1Cl)Nc1cc(F)ccc1N1CCC(C(=O)O)CC1 in this assay?
F

Could you please tell me the result logged for O=NN(c1ccccc1)c1ccccc1 in this assay?
F

Could you please tell me the result logged for C[C@]12CCC(=O)C=C1CC[C@@H]1[C@@H]2CC[C@]2(C)C(=O)CC[C@@H]12 in this assay?
F

* * *

Read-out: E-selectin (Homo sapiens) (UniProt P16581)
Sequence (P16581 whole entry, looked up): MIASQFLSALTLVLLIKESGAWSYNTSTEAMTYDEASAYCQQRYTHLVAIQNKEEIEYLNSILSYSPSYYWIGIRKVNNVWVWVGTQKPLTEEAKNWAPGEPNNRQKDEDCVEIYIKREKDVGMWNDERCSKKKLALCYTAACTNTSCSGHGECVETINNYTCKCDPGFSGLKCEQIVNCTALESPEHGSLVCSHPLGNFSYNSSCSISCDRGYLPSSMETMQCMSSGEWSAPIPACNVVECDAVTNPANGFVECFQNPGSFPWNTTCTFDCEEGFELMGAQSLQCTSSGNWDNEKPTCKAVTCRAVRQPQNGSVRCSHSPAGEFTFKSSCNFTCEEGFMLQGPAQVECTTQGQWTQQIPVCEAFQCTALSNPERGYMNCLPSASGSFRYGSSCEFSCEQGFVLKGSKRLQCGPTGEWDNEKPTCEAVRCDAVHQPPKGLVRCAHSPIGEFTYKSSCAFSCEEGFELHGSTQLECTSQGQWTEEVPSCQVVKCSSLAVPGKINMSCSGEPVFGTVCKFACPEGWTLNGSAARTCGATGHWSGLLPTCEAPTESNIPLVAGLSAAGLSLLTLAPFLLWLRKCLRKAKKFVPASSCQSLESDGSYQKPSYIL
Assay: BSK_3C_Eselectin: BioMAP Diversity Plus: 3C Assay for Eselectin Biomarker Activity (AID 2283015)
Details: primary human endothelial cells (HUVEC); actives raise or lower the signal
Activity calls are given as the source filed them. The calls were made as follows: active = hit-call score of the fitted dose curve at least 0.9, where 1 is the maximum; inactive = score below 0.9.
Parameter call: string, one of yes (1) for active, no (0) for inactive

CHEMICAL_STRUCTURE	CAT
O=C(NC(=O)c1c(F)cccc1F)Nc1cc(Cl)c(OC(F)(F)C(F)F)c(Cl)c1	no (0)
CC(C)(c1ccccc1)c1ccc(O)cc1	yes (1)
O=C(O)C(F)(F)C(F)(F)C(F)(F)C(F)(F)C(F)(F)C(F)(F)C(F)(F)C(F)(F)F	no (0)

Could you please tell me the result logged for Sc1ccccc1 in this assay?
no (0)

Could you please tell me the result logged for COS(=O)(=O)OC in this assay?
no (0)

Could you please tell me the result logged for CC1=C2C[C@H]3[C@@H](CC=C4C[C@@H](O)CC[C@@]43C)[C@@H]2CC[C@]12O[C@@H]1C[C@H](C)CN[C@H]1[C@H]2C in this assay?
no (0)

Could you please tell me the result logged for O=S(=O)(O)C(F)(F)C(F)(F)C(F)(F)C(F)(F)F in this assay?
no (0)

Could you please tell me the result logged for CC(c1ccc(O)cc1)(c1ccc(O)cc1)c1ccc(O)cc1 in this assay?
no (0)

Could you please tell me the result logged for O=C(O)C(F)(F)C(F)(F)C(F)(F)C(F)(F)C(F)(F)F in this assay?
no (0)

Reference source for all entries: PubChem BioAssay (EPA / NIEHS)
